Values were extracted from the supplement of paper PMC11061612.

- System: Hs-746T (Gastric Carcinoma)
- protocol-text: combination Emax (second highest fraction inhibited in the dose matrix, 72 h); higher = more inhibition; extreme values may be limits of the assay
parameter-measured: combination Emax
Lab note: write the figure by itself, no unit.

Consider the following illustrative entries.
compound	observed-measurement
Cc1cc2ncnn2cc1Nc1ncc2c(n1)n(C1CCOCC1)c(=O)n2C [AZD7648] + CCN(CCO)CCCOc1ccc2c(Nc3cc(CC(=O)Nc4cccc(F)c4)[nH]n3)ncnc2c1 [AZD2811] (first compound max 10 µM, 7x7, partner max 1 µM)	0.386
Cc1c2c(nn1C)CSCc1cc(n(C)n1)CSc1cc(c3ccccc3c1)OCCCc1c(C(=O)O)n(C)c3c-2c(Cl)ccc13 [AZD5991] + C=CCn1c(=O)c2cnc(Nc3ccc(N4CCN(C)CC4)cc3)nc2n1-c1cccc(C(C)(C)O)n1 [AZD1775] (first compound max 1 µM, partner max 1 µM)	0.605
CC1(C)CCC(CN2CCN(c3ccc(C(=O)NS(=O)(=O)c4ccc(NCC5CCOCC5)c([N+](=O)[O-])c4)c(Oc4cnc5[nH]ccc5c4)c3)CC2)=C(c2ccc(Cl)cc2)C1 [Venetoclax] + COc1cc(Nc2ncc3c(n2)-c2ccc(Cl)cc2C(c2c(F)cccc2OC)=NC3)ccc1C(=O)O [Alisertib] (first compound max 1 µM, 7x7, partner max 10 µM)	0.65

I have this compound here, CCN(CCO)CCCOc1ccc2c(Nc3cc(CC(=O)Nc4cccc(F)c4)[nH]n3)ncnc2c1 [AZD2811] + O=C(c1cc(Cc2n[nH]c(=O)c3ccccc23)ccc1F)N1CCN(C(=O)C2CC2)CC1 [Olaparib] (first compound max 1 µM, 7x7, partner max 10 µM) , and I need its recorded combination Emax. 0.232

* * *

combination Emax by entry:
- Test system: SW1710 (Bladder Carcinoma)
- protocol-text: combination Emax (second highest fraction inhibited in the dose matrix, 72 h); higher = more inhibition; extreme values may be limits of the assay
Lab note: write the figure by itself, no unit.

Consider the following illustrative entries.
compound	observed-measurement
CS(=O)(=O)CCNCc1ccc(-c2ccc3ncnc(Nc4ccc(OCc5cccc(F)c5)c(Cl)c4)c3c2)o1 [Lapatinib] + NC1(c2ccc(-c3nc4ccn5c(=O)[nH]nc5c4cc3-c3ccccc3)cc2)CCC1 [MK-2206] (first compound max 10 µM, 7x7, partner max 10 µM)	0.602
N#Cc1cnc(Nc2cc(NC[C@H]3CNCCO3)c(C(F)(F)F)cn2)cn1 [SRA737] + O=c1[nH]cc(F)c(=O)[nH]1 [5-Fluorouracil] (first compound max 10 µM, 7x7, partner max 20 µM)	0.217
COc1cccc(OCCCN)c1-c1cc(Nc2cnc(C#N)cn2)n[nH]1 [Prexasertib] + O=C(c1cc(Cc2n[nH]c(=O)c3ccccc23)ccc1F)N1CCN(C(=O)C2CC2)CC1 [Olaparib] (first compound max 1 µM, 7x7, partner max 10 µM)	0.761

Alright, here's another compound for you.
Field: combination Emax (SW1710 (Bladder Carcinoma)). Entry: Cc1cc2ncnn2cc1Nc1ncc2c(n1)n(C1CCOCC1)c(=O)n2C [AZD7648] + C=CCn1c(=O)c2cnc(Nc3ccc(N4CCN(C)CC4)cc3)nc2n1-c1cccc(C(C)(C)O)n1 [AZD1775] (first compound max 10 µM, partner max 1 µM) 0.408

* * *

- Tested on: TGBC1TKB (Biliary Tract Carcinoma)
- protocol-text: combination Emax (second highest fraction inhibited in the dose matrix, 72 h); higher = more inhibition; extreme values may be limits of the assay
parameter-measured: combination Emax
Lab note: write the figure by itself, no unit.

Consider the following illustrative entries.
compound	combination Emax
C[C@@H](c1ccc2nccn2c1)n1nnc2ncc(-c3cnn(C)c3)nc21 [Savolitinib] + CC1(C)CCC(CN2CCN(c3ccc(C(=O)NS(=O)(=O)c4ccc(NCC5CCOCC5)c([N+](=O)[O-])c4)c(Oc4cnc5[nH]ccc5c4)c3)CC2)=C(c2ccc(Cl)cc2)C1 [Venetoclax] (first compound max 1 µM, 7x7, partner max 1 µM)	0.144
CC1(C)CCC(CN2CCN(c3ccc(C(=O)NS(=O)(=O)c4ccc(NCC5CCOCC5)c([N+](=O)[O-])c4)c(Oc4cnc5[nH]ccc5c4)c3)CC2)=C(c2ccc(Cl)cc2)C1 [Venetoclax] + CCN(CCO)CCCOc1ccc2c(Nc3cc(CC(=O)Nc4cccc(F)c4)[nH]n3)ncnc2c1 [AZD2811] (first compound max 1 µM, 7x7, partner max 1 µM)	0.208

Alright, here's another compound for you.
I have this compound here, Cc1c2c(nn1C)CSCc1cc(n(C)n1)CSc1cc(c3ccccc3c1)OCCCc1c(C(=O)O)n(C)c3c-2c(Cl)ccc13 [AZD5991] + C1CN(CCC1(C(=O)N[C@@H](CCO)C2=CC=C(C=C2)Cl)N)C3=NC=NC4=C3C=CN4 [Capivasertib] (first compound max 1 µM, 7x7, partner max 3 µM) , and I need its recorded combination Emax. 0.292

* * *

- Tested on: LOXIMVI (Melanoma)
- protocol-text: combination Emax (second highest fraction inhibited in the dose matrix, 72 h); higher = more inhibition; extreme values may be limits of the assay
Please enter Criterion met where combination Emax is greater than or equal to 0.9, and Criterion not met where it is lower.

Solved entries:
compound	assigned-class
COc1nnc2ccc(N3CCC(c4ccc(OCCN5CCN(C)C(=O)[C@H]5C)cc4)CC3)nn12 [AZD5153] + C[C@@H]1COCCN1C2=NC(=NC(=C2)C3(CC3)[S@](=N)(=O)C)C4=C5C=CNC5=NC=C4 [AZD6738] (first compound max 1 µM, 7x7, partner max 10 µM)	Criterion met
COc1cccc2c1C(=O)c1c(O)c3c(c(O)c1C2=O)C[C@@](O)(C(=O)CO)C[C@@H]3O[C@H]1C[C@H](N)[C@H](O)[C@H](C)O1 [Doxorubicin] + Cc1cc2ncnn2cc1Nc1ncc2c(n1)n(C1CCOCC1)c(=O)n2C [AZD7648] (first compound max 1 µM, 7x7, partner max 10 µM)	Criterion met
CN(CCO)CC[C@H](CSc1ccccc1)Nc1ccc(S(=O)(=O)NC(=O)c2ccc(N3CCC([C@@H](O)c4ccccc4-c4ccc(Cl)cc4)CC3)cc2)cc1S(=O)(=O)C(F)(F)F [AZD4320] + CS(=O)(=O)CCNCc1ccc(-c2ccc3ncnc(Nc4ccc(OCc5cccc(F)c5)c(Cl)c4)c3c2)o1 [Lapatinib] (first compound max 1 µM, 7x7, partner max 10 µM)	Criterion not met
CN(CCO)CC[C@H](CSc1ccccc1)Nc1ccc(S(=O)(=O)NC(=O)c2ccc(N3CCC([C@@H](O)c4ccccc4-c4ccc(Cl)cc4)CC3)cc2)cc1S(=O)(=O)C(F)(F)F [AZD4320] + C[C@@H](Nc1cc(F)cc(F)c1)c1cc(C(=O)N(C)C)cc2c(=O)cc(N3CCOCC3)oc12 [AZD8186] (first compound max 1 µM, 7x7, partner max 3 µM)	Criterion not met
CS(=O)(=O)CCNCc1ccc(-c2ccc3ncnc(Nc4ccc(OCc5cccc(F)c5)c(Cl)c4)c3c2)o1 [Lapatinib] + Cn1cnc2c(F)c(Nc3ccc(Br)cc3Cl)c(C(=O)NOCCO)cc21 [Selumetinib] (first compound max 10 µM, 7x7, partner max 10 µM)	Criterion not met
C=CCn1c(=O)c2cnc(Nc3ccc(N4CCN(C)CC4)cc3)nc2n1-c1cccc(C(C)(C)O)n1 [AZD1775] + C1CN(CCC1(C(=O)N[C@@H](CCO)C2=CC=C(C=C2)Cl)N)C3=NC=NC4=C3C=CN4 [Capivasertib] (first compound max 3 µM, partner max 3 µM)	Criterion not met
CC1(C)CCC(CN2CCN(c3ccc(C(=O)NS(=O)(=O)c4ccc(NCC5CCOCC5)c([N+](=O)[O-])c4)c(Oc4cnc5[nH]ccc5c4)c3)CC2)=C(c2ccc(Cl)cc2)C1 [Venetoclax] + CN(C)CCCOc1ccc(-c2ccc3ncc4c(c3c2)n(C2CCOCC2)c(=O)n4C)cn1 [AZD0156] (first compound max 1 µM, 7x7, partner max 1 µM)	Criterion not met

Please look at the following compound next.
Could you verify whether the entry NC1(C(=O)N[C@@H](CCO)c2ccc(Cl)cc2)CCN(c2ncnc3[nH]ccc23)CC1 [Capivasertib] + COc1nnc2ccc(N3CCC(c4ccc(OCCN5CCN(C)C(=O)[C@H]5C)cc4)CC3)nn12 [AZD5153] (first compound max 10 µM, 7x7, partner max 1 µM) shows combination Emax of no less than 0.9? Criterion met

* * *

Bliss excess by entry:
- System: KYAE-1 (Esophageal Adenocarcinoma);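 further: after 72 h of two-drug dosing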
- protocol-text: Bliss excess, mean over the matrix (fraction); higher = more synergy
Lab note: write the figure by itself, no unit.

compound	measured-on	parameter-measured	observed-measurement
Cn1cnc2c(F)c(Nc3ccc(Br)cc3Cl)c(C(=O)NOCCO)cc21 [Selumetinib] + CC(C)n1c(=O)n(C)c2cnc3cc(F)c(-c4ccc(OCCCN5CCCCC5)nc4)cc3c21 [AZD1390] (first compound max 10 µM, 7x7, partner max 0.3 µM)	KYAE-1 (Esophageal Adenocarcinoma)	Bliss excess	-0.026

Alright, here's another compound for you.
I have this compound here, COc1nnc2ccc(N3CCC(c4ccc(OCCN5CCN(C)C(=O)[C@H]5C)cc4)CC3)nn12 [AZD5153] + C=CCn1c(=O)c2cnc(Nc3ccc(N4CCN(C)CC4)cc3)nc2n1-c1cccc(C(C)(C)O)n1 [AZD1775] (first compound max 1 µM, partner max 1 µM) , and I need its recorded Bliss excess. -0.0142
